tgt: Kv10.1 (Homo sapiens)
Sequence (O95259 whole entry): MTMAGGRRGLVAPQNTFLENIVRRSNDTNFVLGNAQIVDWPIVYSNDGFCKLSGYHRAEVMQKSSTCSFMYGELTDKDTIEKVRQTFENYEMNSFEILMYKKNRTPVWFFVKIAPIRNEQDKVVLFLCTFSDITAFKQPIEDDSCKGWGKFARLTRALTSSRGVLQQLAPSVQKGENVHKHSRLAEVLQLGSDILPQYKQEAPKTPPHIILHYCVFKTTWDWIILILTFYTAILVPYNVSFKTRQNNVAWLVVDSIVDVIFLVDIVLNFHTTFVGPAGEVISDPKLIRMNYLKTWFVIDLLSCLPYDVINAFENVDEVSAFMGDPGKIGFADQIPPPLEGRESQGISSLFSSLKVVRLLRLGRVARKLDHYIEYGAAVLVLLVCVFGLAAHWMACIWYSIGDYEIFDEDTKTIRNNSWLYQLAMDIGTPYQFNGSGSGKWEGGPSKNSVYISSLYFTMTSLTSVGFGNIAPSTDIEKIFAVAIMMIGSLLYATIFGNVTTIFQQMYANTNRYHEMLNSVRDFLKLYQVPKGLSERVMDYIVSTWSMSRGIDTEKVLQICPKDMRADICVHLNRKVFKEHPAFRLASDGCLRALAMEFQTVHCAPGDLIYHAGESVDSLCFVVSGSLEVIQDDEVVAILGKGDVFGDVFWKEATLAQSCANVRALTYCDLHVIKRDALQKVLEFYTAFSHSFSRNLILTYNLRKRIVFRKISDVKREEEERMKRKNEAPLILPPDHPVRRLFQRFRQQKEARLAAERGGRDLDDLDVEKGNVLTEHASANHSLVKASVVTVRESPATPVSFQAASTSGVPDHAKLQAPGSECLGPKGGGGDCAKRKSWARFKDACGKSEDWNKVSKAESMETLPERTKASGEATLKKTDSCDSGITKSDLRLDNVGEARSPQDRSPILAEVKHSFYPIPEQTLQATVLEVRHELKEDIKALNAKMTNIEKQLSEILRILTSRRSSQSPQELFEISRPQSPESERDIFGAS
experimental protocol: whole-cell patch-clamp, HEK293 cells stably expressing human Kv10.[…]
observed property: pIC50
Reminder that pIC50 means the negative base-10 logarithm of the concentration expressed in mol/L.

Recorded pIC50 for OC1(c2ccc(Cl)c(C(F)(F)F)c2)CCN(CCCC(c2ccc(F)cc2)c2ccc(F)cc2)CC1 , please?
5.57
